Molecular target: T1, AFP158/HLA-A*02:01 complex (human)
T1 construct: flowed over the chip in SPR; also called AFP158 pro
Test: SPR, scFv captured, pMHC in flow;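 note: complex injected at several concentrations over crude scFv, association then running-buffer dissociation, KD estimated from kinetic on- and off-rate constants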
measurement-name: pKd
Schema: pKd number; meaning minus log10 of the concentration expressed in molar units.

LD97H (scFv, AS170036 VL1VH1 scFv mutein) scFv: QSALTQPRSVSGSPGQSVTISCAGTSSDVGSENYVSWYQQHPGKAPKLMIYQVNKRASGVPDRFSGSKSGNTASLTISGLQAEDEADYYCASYRSSHHNIVFGGGTKLTVLGGGGSGGGGSGGGGSEVQLVESGGGLVQPGGSLRLSCAASGFTFSSYAMSWVRQAPGKGLEWVSTINSGTGSPYYADSVKGRFTISRDNSKNTLYLQMNSLRAEDTAVYYCAKNFFDGSWFLGPPAMDYWGQGTLVTVSSHHHHHH    6.38
LH98N (scFv, AS170036 VL1VH1 scFv mutein) scFv: QSALTQPRSVSGSPGQSVTISCAGTSSDVGSENYVSWYQQHPGKAPKLMIYQVNKRASGVPDRFSGSKSGNTASLTISGLQAEDEADYYCASYRSSDNNIVFGGGTKLTVLGGGGSGGGGSGGGGSEVQLVESGGGLVQPGGSLRLSCAASGFTFSSYAMSWVRQAPGKGLEWVSTINSGTGSPYYADSVKGRFTISRDNSKNTLYLQMNSLRAEDTAVYYCAKNFFDGSWFLGPPAMDYWGQGTLVTVSSHHHHHH    6.80

input: Output pKd of LH98L (scFv, AS170036 VL1VH1 scFv mutein) scFv: QSALTQPRSVSGSPGQSVTISCAGTSSDVGSENYVSWYQQHPGKAPKLMIYQVNKRASGVPDRFSGSKSGNTASLTISGLQAEDEADYYCASYRSSDLNIVFGGGTKLTVLGGGGSGGGGSGGGGSEVQLVESGGGLVQPGGSLRLSCAASGFTFSSYAMSWVRQAPGKGLEWVSTINSGTGSPYYADSVKGRFTISRDNSKNTLYLQMNSLRAEDTAVYYCAKNFFDGSWFLGPPAMDYWGQGTLVTVSSHHHHHH
output: 6.70
